B1: Osa-1-4 twister ribozyme (parent)
chain: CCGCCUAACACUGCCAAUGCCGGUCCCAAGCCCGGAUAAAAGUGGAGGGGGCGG

# Variants of: B1
# assay.details: self-cleavage, relative activity (ratio to wild type); higher = more cleavage; co-transcriptional
readout.type: self-cleavage
I only need the number, thanks.

CCGCCUAACACUGCCAAUGCCGGACCCAACCCCGGAUAAAAGUGGAGGGGGCGG [G30C U24A] :: 0.03
CCGCCUAACACUGCCAAUGCCGUUCCCAAGACCGGAUAAAAGUGGAGGGGGCGG [C31A G23U] :: 0.02
CCGCCUAAAACUGCCAAUGCUGGUCCCAAGCCCGGAUAAAAGUGGAGGGGGCGG [C21U C9A] :: 0.55
CCGCCUAACACUGCCAUUGCCGGUCCCAAGCCCAGAUAAAAGUGGAGGGGGCGG [A17U G34A] :: 0.82
CCGCCUAACACUGCCAAUGCCGGGCCCAAGCCCGGAUUAAAGUGGAGGGGGCGG [A38U U24G] :: 0.03

## Task Recorded self-cleavage for CCGCCUGACACUGCCAAUGCCGGUCCCAAGCCCGCAUAAAAGUGGAGGGGGCGG [A7G G35C] , please?
## Result 0.1

## Task Recorded self-cleavage for CCGCCUAACACUUCCAAUGCCGGUCCCACGCCCGGAUAAAAGUGGAGGGGGCGG [A29C G13U] , please?
## Result 0.01

## Task Recorded self-cleavage for CCGCCUAACACUGACAAUGCCGGUCCCAAGCCCAGAUAAAAGUGGAGGGGGCGG [C14A G34A] , please?
## Result 0.07

## Task Recorded self-cleavage for CCGCCUAACACUGCCAAUGCCGGCCCGAAGCCCGGAUAAAAGUGGAGGGGGCGG [C27G U24C] , please?
## Result 0.04

## Task Recorded self-cleavage for CCGCCUAACACUGCCAAUGCCGGUCCCUAGCCCGGAUAAAAGUGGAGGGGACGG [A28U G51A] , please?
## Result 0.28

## Task Recorded self-cleavage for CCGCCUAACACUGCCUAUGCCGGUCCCAAGCCCGGCUAAAAGUGGAGGGGGCGG [A16U A36C] , please?
## Result 0.6

## Task Recorded self-cleavage for CCGCCUAACACUGCCAAUGCCGGUCCCAAGCCCGGAUAAAAGAGAAGGGGGCGG [G45A U43A] , please?
## Result 0.09

## Task Recorded self-cleavage for CCGCCUAACCCUGCCAAUGCCGGUCCCAAUCCCGGAUAAAAGUGGAGGGGGCGG [A10C G30U] , please?
## Result 0.01
